biological target: Fuc(a1-2)Gal(b1-4)Glc; assay: glycan array binding signal (z-score within array); higher = stronger binding; details: glycan notation: IUPAC condensed, linker removed
This is one part of a sample in which the strongest signals are shown more often than they occur.
Parameter glycan array binding signal (z-score): see the listing below.

binder	glycan array binding signal (z-score)
Cohesin-hMARCO (Homo sapiens) (protein) LDDLDAVRIKVDTVNAKPGDTVRIPVRFSGIPSKGIANCDFVYSYDPNVLEIIEIEPGDIIVDPNPDKSFDTAVYPDRKIIVFLFAEDSGTGAYAITKDGVFATIVAKVKEGAPNGLSVIKFVEVGGFANNDLVEQKTQFFDGGANVGDTTEPATPTTPVTTPTTTDDLDAASVRIVGSSNRGRAEVYYSGTWGTICDDEWQNSDAIVFCRMLGYSKGRALYKVGAGTGQIWLDNVQCRGTESTLWSCTKNSWGHHDCSHEEDAGVECSVHHHHHH	0.78
Flo5 (Saccharomyces cerevisiae), P38894 (protein) MGSSHHHHHHSSGLVPRGSHMSGATEACLPAGQRKSGMNINFYQYSLKDSSTYSNAAYMAYGYASKTKLGSVGGQTDISIDYNIPCVSSSGTFPCPQEDSYGNWGCKGMGACSNSQGIAYWSTDLFGFYTTPTNVTLEMTGYFLPPQTGSYTFSFATVDDSAILSVGGSIAFECCAQEQPPITSTNFTINGIKPWDGSLPDNITGTVYMYAGYYYPLKVVYSNAVSWGTLPISVELPDGTTVSDNFEGYVYSFDDDLSQSNCTIPDPSIH	1.59
CTMLA2 (Anopheles gambiae), Q7Q7F8 (protein) MNLMITILIAVITVVRGDLSVPKTVDDILQQNPCLCPCKPFEEKEYFIPISRTSDWFGAVAYCHSVGMELAEVLNEDEARAMGEVIAEEESDSDDEFYWIGANDLGVQGTYRWALAGRPVLYSQWAAGEPNHARGENGQQPAERCVAVAMDKYEWNDFQCTQQKPFICQQFRKH	0.14
rCnSL-proA (Clitocybe nebularis) (protein) AAFFSLVVLLALLPFGIHASALPSTELTPRVNPNLPGPNDVFVGFRGTNNIVGAIYEKDGIKDTPLNNGADAEMGPGSYITDGLFTARIFASGSAGNNPGTTATVCKIYASGVQWRGAPKGYIPVAYFGNGPTAEQRRQTYLRTLGLPGTAIRFGNLNTNPGQGPTAPRQMVVPPGPLRSLLKASCFPAADTRLPQTLHYFEKRVDWNIITAADSQTWGH	-0.272
SP16663B-bot-321-25-321 (Bacteroides ovatus) (protein) DDDDEVTMNSKFYLSTKVFPVDSYEASLSVILKDNSVVVNELQPNYRFVACATERLSKDVKITADSDDNLVSAYNKANDTEYNILPAENYSFTNKTVTIENGESVSGDSIKIELLNVGSLTTEGGYLLPVTISSIEGNNLDALSSNRGVVYLKIQNIHVNVESGQPAEGTLIADRSGWTVKVAPTTRGDAKNLIDGTNSDVARDGGAEYWLTVDIGKVQTLTGIRNKCYASSYSPTAVEVFTSSDGAKWKSIGAVTISKSGTQYIKFSKAVETRYLKYYVKQGPNTVSLTEFDLYAK	-0.653
